Tested on: Plasmodium berghei
Assay: Screen against P. berghei liver stage (PbLuc), transformed with Luciferase, at 10uM
Assay type: functional, HepG2
Conditions: tested at 10 uM
In all, about 69,000 compounds went through this assay and about 8,600 (12%) showed an effect of 50% or more. The sample holds strong results, similar compounds and a random draw of the others, so the mix is not that of the screen.
Each entry below carries its recorded INHIBITION.
experimental_readout: INHIBITION (%)

- compound: "COCCOCC(=O)Nc1ccc(C)cc1Cl"
  unit_descriptor: "%"
  recorded_value: -71.6
- compound: "Cc1nc(CN2CCCn3cnc(COCC4CC4)c3C2)cs1"
  unit_descriptor: "%"
  recorded_value: 4.02
- compound: "c1nc(COCC2CC2)c2n1CCCN(CC1CC1)C2"
  unit_descriptor: "%"
  recorded_value: 11.5
- compound: "Cc1cc2nc(SCC(=O)N3CCCC3)n(Cc3ccco3)c(O)c-2n1"
  unit_descriptor: "%"
  recorded_value: 34.2
- compound: "Cn1cc(-c2csc(N3CCSCC3)n2)cn1"
  unit_descriptor: "%"
  recorded_value: -42.1
- compound: "COCc1noc(CCNc2ncnc3c2CCNCC3)n1"
  unit_descriptor: "%"
  recorded_value: -58
- compound: "COCCOCC(=O)Nc1ccnn1-c1ccc(Cl)cc1"
  unit_descriptor: "%"
  recorded_value: 54.6
- compound: "CN(C)C(=O)[C@@H]1C[C@@H]2[C@@H](CCN2Cc2nccs2)O1"
  unit_descriptor: "%"
  recorded_value: 44.5
- compound: "COc1cc(Cl)ccc1CNC(=O)N(C)C(C)CS(C)(=O)=O (stereo unspecified)"
  unit_descriptor: "%"
  recorded_value: 61
- compound: "Cc1occc1C(=O)N1CCC[C@]2(C[C@@H](OCc3ccncc3)CO2)C1"
  unit_descriptor: "%"
  recorded_value: -9.67
- compound: "COCCC(=O)Nc1ccnc(Oc2ccccc2)c1"
  unit_descriptor: "%"
  recorded_value: -30
- compound: "CC(C)Nc1cccc(CC2CCN(S(C)(=O)=O)CC2)n1"
  unit_descriptor: "%"
  recorded_value: 41.2
- compound: "COCCC(=O)Nc1ccnn1-c1ccccc1"
  unit_descriptor: "%"
  recorded_value: 67.1
- compound: "COCC(=O)Nc1ccnn1-c1ccc(Cl)cc1"
  unit_descriptor: "%"
  recorded_value: 64.3
- compound: "CN1CCN(c2nc(-c3cnn(C)c3)cs2)CC1"
  unit_descriptor: "%"
  recorded_value: -1.45
- compound: "COc1ccc(CN2CCCn3cnc(COC(C)C)c3C2)cc1"
  unit_descriptor: "%"
  recorded_value: 56.7
- compound: "Cc1cccc(-n2cc(CNc3ncnc4c3CCNCC4)cn2)c1"
  unit_descriptor: "%"
  recorded_value: 16
- compound: "CC(C)OCc1ncn2c1CN(Cc1ccoc1)CCC2"
  unit_descriptor: "%"
  recorded_value: 59
- compound: "COCC(=O)NC(c1ccc(Cl)cc1)C(F)(F)F (stereo unspecified)"
  unit_descriptor: "%"
  recorded_value: -21.8
- compound: "CC(=O)N1C[C@H]2CCCN(Cc3ccc(C)o3)[C@H]2C1"
  unit_descriptor: "%"
  recorded_value: -3.58
- compound: "COCC(=O)NCCc1ccc(Cl)s1"
  unit_descriptor: "%"
  recorded_value: 28.4
- compound: "Cc1nc(CN2CCCn3cnc(COC(C)C)c3C2)cs1"
  unit_descriptor: "%"
  recorded_value: 66
- compound: "Cc1ccccc1-n1nccc1NC(=O)CCOC(C)C"
  unit_descriptor: "%"
  recorded_value: 43.8
- compound: "CC(=O)N1CCCC(c2ccc(C(N)=O)cn2)C1 (stereo unspecified)"
  unit_descriptor: "%"
  recorded_value: 40
- compound: "COc1ccc(-c2cc(CNc3ncnc4c3CCNCC4)no2)cc1"
  unit_descriptor: "%"
  recorded_value: 94.1
- compound: "COc1ccccc1CCNC(=O)N(C)C(C)CS(C)(=O)=O (stereo unspecified)"
  unit_descriptor: "%"
  recorded_value: 38.7
